Literature Ki values, system: Gastrin/cholecystokinin type B receptor (Homo sapiens).
Sequence (P32239 whole entry): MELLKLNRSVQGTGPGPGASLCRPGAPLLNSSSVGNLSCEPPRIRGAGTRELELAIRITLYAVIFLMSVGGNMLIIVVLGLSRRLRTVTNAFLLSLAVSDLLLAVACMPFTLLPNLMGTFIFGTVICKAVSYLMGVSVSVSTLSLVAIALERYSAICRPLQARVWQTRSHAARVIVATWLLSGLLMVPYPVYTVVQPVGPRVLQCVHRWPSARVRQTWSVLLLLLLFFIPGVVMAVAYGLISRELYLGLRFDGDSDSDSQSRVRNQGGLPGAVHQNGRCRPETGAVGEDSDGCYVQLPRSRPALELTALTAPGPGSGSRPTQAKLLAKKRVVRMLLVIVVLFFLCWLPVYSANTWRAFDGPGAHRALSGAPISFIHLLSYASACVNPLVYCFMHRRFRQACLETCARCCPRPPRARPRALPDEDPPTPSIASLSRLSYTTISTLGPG
Expressed in µM, but write only the number.

Check out these entries, answers already filled in.
molecule	measured on	units text	assay result
O=C(NCc1ccc(S(=O)(=O)Nc2cc(Br)ccc2C(=O)N2CCCCC2)s1)c1ccccc1	Gastrin/cholecystokinin type B receptor (Homo sapiens)	µM	6.31
COC(=O)c1sccc1S(=O)(=O)Nc1cc(Br)ccc1C(=O)N1CCCCC1	Gastrin/cholecystokinin type B receptor (Homo sapiens)	µM	1.58
O=C(Nc1ccccc1C(=O)NC(CCc1ccccc1)C(=O)O)c1cc2ccccc2[nH]1 (racemic)	Gastrin/cholecystokinin type B receptor (Homo sapiens)	µM	15.3
O=C(NCCc1ccc(Cl)c(Cl)c1)c1ccc(Cl)cc1NS(=O)(=O)c1cccc2nsnc12	Gastrin/cholecystokinin type B receptor (Homo sapiens)	µM	7.94
COC(=O)c1csc(S(=O)(=O)Nc2cc(Br)ccc2C(=O)N2CCCCC2)c1OC	Gastrin/cholecystokinin type B receptor (Homo sapiens)	µM	5.01

-- ask Suppose we examine the molecule O=C(Nc1ccccc1C(=O)N[C@@H](CCc1ccccc1)C(=O)O)c1cc2ccccc2[nH]1 ; what Ki value has been reported?
-- reply 1

-- ask Next up: O=C(c1ccc(Br)cc1NS(=O)(=O)c1cccc2ncsc12)N1CCCCC1
-- reply 0.794

-- ask Next up: O=C(Nc1ccccc1C(=O)N[C@H](CCc1ccccc1)C(=O)O)c1cc2ccccc2[nH]1
-- reply 1

-- ask Next up: O=C(c1ccc(Br)cc1NS(=O)(=O)c1ccc(C(F)(F)F)cc1Cl)N1CCCCC1
-- reply 0.631
